Please respond with reported fold lower EC50 than reference PR000374 for every item in the list.
# testedTarget: T1, human ROR1 (hROR1) on cells (human, UniProt Q01973 30-937)
# T1 construct: whole, on cells; the cell line is named under assay; also called HEK293T-hROR1; 293T-hROR1
# T1 sequence (Q01973 30-937): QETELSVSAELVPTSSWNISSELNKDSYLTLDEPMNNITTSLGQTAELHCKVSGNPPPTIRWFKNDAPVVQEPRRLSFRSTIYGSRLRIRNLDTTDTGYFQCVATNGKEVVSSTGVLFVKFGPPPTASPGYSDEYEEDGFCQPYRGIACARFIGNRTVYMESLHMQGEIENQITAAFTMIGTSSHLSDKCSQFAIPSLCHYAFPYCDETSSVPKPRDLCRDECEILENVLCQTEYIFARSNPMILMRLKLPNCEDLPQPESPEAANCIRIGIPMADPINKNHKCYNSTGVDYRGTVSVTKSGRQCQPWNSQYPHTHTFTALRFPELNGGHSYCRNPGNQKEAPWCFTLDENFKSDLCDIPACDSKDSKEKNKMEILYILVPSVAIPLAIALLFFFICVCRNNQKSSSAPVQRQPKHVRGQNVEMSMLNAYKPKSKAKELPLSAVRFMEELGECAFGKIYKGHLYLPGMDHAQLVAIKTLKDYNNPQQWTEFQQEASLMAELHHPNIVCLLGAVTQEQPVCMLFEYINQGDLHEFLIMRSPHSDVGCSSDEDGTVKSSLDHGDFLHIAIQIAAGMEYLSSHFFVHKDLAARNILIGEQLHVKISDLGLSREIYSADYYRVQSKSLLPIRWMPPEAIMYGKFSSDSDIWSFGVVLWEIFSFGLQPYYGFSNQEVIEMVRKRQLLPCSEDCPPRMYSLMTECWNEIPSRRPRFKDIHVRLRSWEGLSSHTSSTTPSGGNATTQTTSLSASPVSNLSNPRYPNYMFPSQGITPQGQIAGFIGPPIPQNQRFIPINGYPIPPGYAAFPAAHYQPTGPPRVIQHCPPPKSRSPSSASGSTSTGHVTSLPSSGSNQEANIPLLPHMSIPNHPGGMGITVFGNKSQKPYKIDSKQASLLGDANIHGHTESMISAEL
# testDescription: FACS, HEK293T-hROR1 cells
# include the unit after the value

Some solved entries appear below for comparison.
[
  {
    "binder": "PR001358 (antibody, human IgG1, kappa, V domains shown, fully human IgG1, kappa) VH: QVQLVQSGGGVVQPGRSLRLSCAASGFTFSSYAMHWVRQAPGKGLEWVAIMWYDGSNTDYADSVKGRFTISRDTSKNTLFLQMNSLRAEDTAVYYCAREQARSFDLWGRGTLVTVSS VL: DIVMTQSPSTLSASVGDRVTITCRASQSINSWLAWYQQKPGKAPKLLIYKASNLESGVPSRFSGSGSGTEFTLTISSLQPDDFATYYCQQYKSYSPMYTFGQGTKVDIKR",
    "fold lower EC50 than reference PR000374": "10 fold"
  },
  {
    "binder": "PR001361 (antibody, V domains shown, fully human IgG1, kappa) VH: QVQLVQSGGGVVQPGRSLRLSCTASGFTFSRYGMLWVRQAPGKGLEWVAVAWYDGVSEDYADSVKGRFTISRDNSMNTLSLQMNSLRAEDTAVYYCAREQARSFDLWGRGTLVTVSS VL: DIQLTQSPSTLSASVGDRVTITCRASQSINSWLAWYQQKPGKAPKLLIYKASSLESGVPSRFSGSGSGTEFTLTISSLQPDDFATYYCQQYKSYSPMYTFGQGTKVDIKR",
    "fold lower EC50 than reference PR000374": "10 fold"
  }
]

Kindly review the next binder as well.
Prompt line: Would you kindly share the measured fold lower EC50 than reference PR000374 for PR001371 (antibody, human IgG1, kappa, V domains shown, fully human IgG1, kappa) VH: QVQLVESGGGVVQPGRSLRLSCAASGFTFSSYGMLWVRQAPGKGLEWVAVAWYDGVSEDYADSVKGRFTISRDNSMNTLSLQMNSLRAEDTAVYYCAREQARSFDLWGRGTLVTVSS VL: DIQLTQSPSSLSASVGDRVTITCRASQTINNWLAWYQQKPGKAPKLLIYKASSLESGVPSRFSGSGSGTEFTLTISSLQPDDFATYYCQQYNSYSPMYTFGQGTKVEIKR ?
Response line: 10 fold
